MEASURED_ON: Bromodomain-containing protein 4 (Homo sapiens)
TEST_METHOD_NOTES: Displacement of tetra-acetylated histone H4 peptide (1-21) from recombinant human N-terminal His-tagged BRD4 BD1 (44 to 170 residues) expressed in Escherichia coli incubated for 30 mins followed by further incubation with tetra-acetylated histone H4 peptide (1-21) for 30 mins by Alphascreen assay
pIC50: −log10 of the molar value.
TEST_READOUT: pIC50

INSERT INTO assay_data (given_smiles, measured_on, test_readout, number) VALUES
  ('COc1ccccc1S(=O)(=O)Nc1ccc2c3c(cc(N4CCC(CO)CC4)nc13)C(=O)N2C', 'Bromodomain-containing protein 4 (Homo sapiens)', 'pIC50', 6.77),
  ('CN1C(=O)c2cccc3c(NS(=O)(=O)c4cccnc4)ccc1c23', 'Bromodomain-containing protein 4 (Homo sapiens)', 'pIC50', 5.61),
  ('O=C1Nc2ccc(NS(=O)(=O)c3ccc(Cl)cc3)c3cccc1c23', 'Bromodomain-containing protein 4 (Homo sapiens)', 'pIC50', 6.11),
  ('CN1C(=O)c2cccc3c(NS(=O)(=O)c4cccc(Cl)c4F)ccc1c23', 'Bromodomain-containing protein 4 (Homo sapiens)', 'pIC50', 5.77),
  ('CN1C(=O)c2cc(N3CCOCC3)nc3c(NS(=O)(=O)c4ccc(Cl)cc4)ccc1c23', 'Bromodomain-containing protein 4 (Homo sapiens)', 'pIC50', 6.66);

* * *

MEASURED_ON: Bromodomain-containing protein 2 (Homo sapiens, UniProt P25440)
Sequence (P25440 whole entry): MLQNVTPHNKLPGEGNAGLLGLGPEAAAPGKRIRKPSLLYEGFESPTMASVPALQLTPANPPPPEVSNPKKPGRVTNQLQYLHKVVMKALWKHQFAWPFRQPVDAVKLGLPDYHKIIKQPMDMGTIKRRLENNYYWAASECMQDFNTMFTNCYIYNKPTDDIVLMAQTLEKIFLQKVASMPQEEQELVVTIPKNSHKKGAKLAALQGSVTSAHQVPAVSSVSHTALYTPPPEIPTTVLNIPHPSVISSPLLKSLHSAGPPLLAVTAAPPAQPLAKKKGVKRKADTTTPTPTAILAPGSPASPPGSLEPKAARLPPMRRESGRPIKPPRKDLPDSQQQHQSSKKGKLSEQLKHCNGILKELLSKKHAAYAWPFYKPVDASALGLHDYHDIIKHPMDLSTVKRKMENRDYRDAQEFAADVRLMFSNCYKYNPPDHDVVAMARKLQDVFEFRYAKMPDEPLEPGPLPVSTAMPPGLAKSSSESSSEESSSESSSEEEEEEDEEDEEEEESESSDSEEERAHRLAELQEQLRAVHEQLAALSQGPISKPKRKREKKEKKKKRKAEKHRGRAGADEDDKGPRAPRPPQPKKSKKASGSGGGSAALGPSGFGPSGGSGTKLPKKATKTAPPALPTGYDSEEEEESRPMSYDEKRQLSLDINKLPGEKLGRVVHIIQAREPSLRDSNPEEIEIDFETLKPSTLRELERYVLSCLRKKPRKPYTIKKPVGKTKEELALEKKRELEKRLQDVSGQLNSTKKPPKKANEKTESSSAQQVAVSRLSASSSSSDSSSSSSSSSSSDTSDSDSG
TEST_METHOD_NOTES: Displacement of tetra-acetylated histone H4 peptide (1-21) from BRD2 BD2 (unknown origin) incubated for 30 mins followed by further incubation with tetra-acetylated histone H4 peptide (1-21) for 30 mins by Alphascreen assay
pIC50: −log10 of the molar value.
TEST_READOUT: pIC50

INSERT INTO measurements (given_smiles, number) VALUES
  ('COc1ccccc1S(=O)(=O)Nc1ccc2c3c(cc(-n4cnc(C)c4)nc13)C(=O)N2C', 4.67);

* * *

MEASURED_ON: Bromodomain-containing protein 3 (Homo sapiens, UniProt Q15059)
Sequence (Q15059 whole entry): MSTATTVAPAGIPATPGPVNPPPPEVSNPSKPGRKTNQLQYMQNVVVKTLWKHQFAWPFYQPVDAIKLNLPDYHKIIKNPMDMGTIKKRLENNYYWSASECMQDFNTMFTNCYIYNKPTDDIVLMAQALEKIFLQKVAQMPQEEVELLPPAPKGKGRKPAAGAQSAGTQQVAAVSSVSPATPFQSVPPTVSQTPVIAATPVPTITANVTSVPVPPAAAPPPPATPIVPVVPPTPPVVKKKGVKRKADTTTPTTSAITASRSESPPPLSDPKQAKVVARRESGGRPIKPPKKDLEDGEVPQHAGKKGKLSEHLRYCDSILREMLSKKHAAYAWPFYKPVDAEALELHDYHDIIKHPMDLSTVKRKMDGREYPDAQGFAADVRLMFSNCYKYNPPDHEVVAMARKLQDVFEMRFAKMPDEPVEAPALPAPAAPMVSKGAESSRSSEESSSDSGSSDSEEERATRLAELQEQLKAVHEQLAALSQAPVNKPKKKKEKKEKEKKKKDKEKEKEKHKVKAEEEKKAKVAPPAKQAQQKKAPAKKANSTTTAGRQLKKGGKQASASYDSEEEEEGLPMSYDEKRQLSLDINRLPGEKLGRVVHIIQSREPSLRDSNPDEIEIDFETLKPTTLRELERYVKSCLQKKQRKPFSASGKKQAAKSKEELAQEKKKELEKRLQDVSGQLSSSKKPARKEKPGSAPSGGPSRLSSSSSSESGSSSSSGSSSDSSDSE
TEST_METHOD_NOTES: Displacement of tetra-acetylated histone H4 peptide (1-21) from BRD3 BD1 (unknown origin) incubated for 30 mins followed by further incubation with tetra-acetylated histone H4 peptide (1-21) for 30 mins by Alphascreen assay
TEST_READOUT: IC50 (nM)

INSERT INTO measurements (given_smiles, measured_on, number) VALUES
  ('COc1ccccc1S(=O)(=O)Nc1ccc2c3c(cc(-n4cnc(C)c4)nc13)C(=O)N2C', 'Bromodomain-containing protein 3 (Homo sapiens, UniProt Q15059)', 246);

* * *

TEST_METHOD_NOTES: Metabolic stability in human assessed as intrinsic hepatic clearance by LC/MS-MS analysis
Type: ADME
CONDITION: read-out: CLH
TEST_READOUT: CLint scaled (mL/min/kg)

INSERT INTO results (given_smiles, number) VALUES
  ('COc1ccccc1S(=O)(=O)Nc1ccc2c3c(cc(-n4cnc(C)c4)nc13)C(=O)N2C', 88.4);

* * *

MEASURED_ON: Bromodomain-containing protein 4 (Homo sapiens, UniProt O60885)
TEST_METHOD_NOTES: Displacement of tetra-acetylated histone H4 peptide (1-21) from recombinant human N-terminal His-tagged BRD4 BD1 (44 to 170 residues) expressed in Escherichia coli incubated for 30 mins followed by further incubation with tetra-acetylated histone H4 peptide (1-21) for 30 mins by Alphascreen assay
pIC50: −log10 of the molar value.
Recorded pIC50 determines the group label, using bin 0: < 6; bin 1: ≥ 6 and < 7; bin 2: ≥ 7

INSERT INTO assay_data (given_smiles, class) VALUES
  ('COc1cc(Cl)ccc1S(=O)(=O)Nc1ccc2c3c(cccc13)C(=O)N2C', 'bin 1'),
  ('COc1ccccc1S(=O)(=O)Nc1ccc2c3c(cc(N4CCN(C(=O)OC(C)(C)C)CC4)nc13)C(=O)N2C', 'bin 1'),
  ('Cc1ccc(S(=O)(=O)Nc2ccc3c4c(ccnc24)C(=O)N3C)cc1', 'bin 0'),
  ('COc1ccccc1S(=O)(=O)Nc1ccc2c3c(cccc13)C(=O)N2C', 'bin 2'),
  ('CN1C(=O)c2cccc3c(NS(=O)(=O)c4ccc(Cl)cc4)ccc1c23', 'bin 1'),
  ('COc1ccccc1S(=O)(=O)Nc1ccc2c3c(cc(-c4cnn(C5CC5)c4)cc13)C(=O)N2C', 'bin 2'),
  ('Cc1cc(/N=N/c2ccc(S(=O)(=O)Nc3ccc(C#N)cc3)cc2)cc(C)c1O', 'bin 1'),
  ('COc1ccccc1S(=O)(=O)Nc1ccc2c3c(cc(-c4ccc(C)o4)cc13)C(=O)N2C', 'bin 2'),
  ('CN1C(=O)c2cccc3c(NS(=O)(=O)c4cccs4)ccc1c23', 'bin 0'),
  ('COc1ccccc1S(=O)(=O)Nc1ccc2c3c(cc(-c4cnn(Cc5ccccc5)c4)cc13)C(=O)N2C', 'bin 1'),
  ('COc1ccccc1S(=O)(=O)Nc1ccc2c3c(cc(-c4ccco4)nc13)C(=O)N2C', 'bin 2'),
  ('CN1C(=O)c2cccc3c(NS(=O)(=O)c4ccccc4OC(F)(F)F)ccc1c23', 'bin 0'),
  ('CN1C(=O)c2cccc3c(NS(=O)(=O)c4c(F)cccc4F)ccc1c23', 'bin 0'),
  ('CCN1C(=O)c2cccc3c(NS(=O)(=O)c4ccc(Cl)cc4)ccc1c23', 'bin 1'),
  ('CN1C(=O)c2cccc3c(NS(=O)(=O)c4cccc5cccnc45)ccc1c23', 'bin 1');
